- MEASURED_ON: UniProt:Q8ILY1
- ASSAY_NOTES: Fluorescence-based high-throughput DNA polymerase assay (molecular beacon), primary screen and dose-response;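 on % inhibition apPOL 180': test concentration in µM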
- Format: biochemical
- DETAILS: DRC-1; 180'; concentration 20
The following ranges of % inhibition apPOL 180' define the classes used here: lower band = under 20%, central band = from 20% up to 40%, upper band = 40% and over

{"COMPOUND": "CN(C)S(=O)(=O)Oc1ccc(-c2noc(-c3ccc(Oc4cc(Cl)cc(Cl)c4)o3)n2)cc1 [KU0263859]", "MEASURED_ON": "UniProt:Q8ILY1", "ASSIGNED_CLASS": "upper band"}
{"COMPOUND": "N#CC(=NNc1cc(C(F)(F)F)cc(C(F)(F)F)c1)C(=O)c1ccco1 [KU0264276]", "MEASURED_ON": "UniProt:Q8ILY1", "ASSIGNED_CLASS": "upper band"}
{"COMPOUND": "CCCCC(=O)N1CCc2c(nc3cc(-c4ccccc4Cl)[nH]n3c2=O)C1 [Molecule 37]", "MEASURED_ON": "UniProt:Q8ILY1", "ASSIGNED_CLASS": "central band"}
{"COMPOUND": "Cc1cccc2c(C(=O)NC(C)C)cc(N(C)C)nc12 [Molecule 47, CC(NC(=O)c1cc(nc2c1cccc2C)N(C)C)C]", "MEASURED_ON": "UniProt:Q8ILY1", "ASSIGNED_CLASS": "central band"}
{"COMPOUND": "Cc1ccc(C(=O)/C=C/C=C/C=C/N(C)C)o1 [Molecule 96, CN(/C=C/C=C/C=C/C(=O)c1ccc(o1)C)C]", "MEASURED_ON": "UniProt:Q8ILY1", "ASSIGNED_CLASS": "upper band"}

Please turn your attention to the following entry.
// return the class label for Cc1nn(CC(=O)NCCSCc2ccco2)c(C)c1Br [KU0267182]
lower band

###

- MEASURED_ON: UniProtKB Q8ILY1
- ASSAY_NOTES: Fluorescence-based high-throughput DNA polymerase assay (molecular beacon), primary screen and dose-response
- Assay type: biochemical
- DETAILS: primary screen value of the library well; unit not given; 90 min, 10 µM
Listed compounds paired with reported DNA Pol
// response body must contain only the number

{"COMPOUND": "Cc1ccc(C)c(CSc2nc(C3CCCCC3)c(C#N)c(=O)[nH]2)c1 [Molecule 6]", "MEASURED_ON": "UniProtKB Q8ILY1", "DNA Pol": 98}
{"COMPOUND": "CC(C)(C)c1cc(C(=O)C(C#N)=NNc2cccc(Cl)c2)no1 [Molecule 98]", "MEASURED_ON": "UniProtKB Q8ILY1", "DNA Pol": 96}
{"COMPOUND": "CSC1=C(C#N)C(=C(C#N)C#N)NC(c2ccccc2)=N1 [Molecule 2, CSc1nc([nH]c(=C(C#N)C#N)c1C#N)c1ccccc1]", "MEASURED_ON": "UniProtKB Q8ILY1", "DNA Pol": 97}
{"COMPOUND": "Nc1c(S(=O)(=O)O)cc(Nc2ccccc2)c2c1C(=O)c1ccccc1C2=O [KU0045407]", "MEASURED_ON": "UniProtKB Q8ILY1", "DNA Pol": 49}
{"COMPOUND": "CCOc1ccc(/C=C2\\N=C(c3cc([N+](=O)[O-])cc([N+](=O)[O-])c3)OC2=O)cc1 [Molecule 97]", "MEASURED_ON": "UniProtKB Q8ILY1", "DNA Pol": 62}
{"COMPOUND": "O=C(Nc1cccc(C(=O)Nc2ccc(S(=O)(=O)[O-])c3cc(S(=O)(=O)[O-])cc(S(=O)(=O)[O-])c23)c1)Nc1cccc(C(=O)Nc2ccc(S(=O)(=O)[O-])c3cc(S(=O)(=O)[O-])cc(S(=O)(=O)[O-])c23)c1.[Na+].[Na+].[Na+].[Na+].[Na+].[Na+] [Molecule 39]", "MEASURED_ON": "UniProtKB Q8ILY1", "DNA Pol": 94}

// next entry
Looking up COc1ccc(S(=O)(=O)/N=C2\NC(=O)/C(=C3\C(=O)Nc4ccc([N+](=O)[O-])cc43)S2)cc1 [KU0054985] , I see its DNA Pol listed as 41

###

Listed compounds paired with reported % inhibition T4 130' 10
- MEASURED_ON: bacteriophage T4 DNA polymerase (Enterobacteria phage T4)
- Construct: made in house
- Sequence (P04415 1-898): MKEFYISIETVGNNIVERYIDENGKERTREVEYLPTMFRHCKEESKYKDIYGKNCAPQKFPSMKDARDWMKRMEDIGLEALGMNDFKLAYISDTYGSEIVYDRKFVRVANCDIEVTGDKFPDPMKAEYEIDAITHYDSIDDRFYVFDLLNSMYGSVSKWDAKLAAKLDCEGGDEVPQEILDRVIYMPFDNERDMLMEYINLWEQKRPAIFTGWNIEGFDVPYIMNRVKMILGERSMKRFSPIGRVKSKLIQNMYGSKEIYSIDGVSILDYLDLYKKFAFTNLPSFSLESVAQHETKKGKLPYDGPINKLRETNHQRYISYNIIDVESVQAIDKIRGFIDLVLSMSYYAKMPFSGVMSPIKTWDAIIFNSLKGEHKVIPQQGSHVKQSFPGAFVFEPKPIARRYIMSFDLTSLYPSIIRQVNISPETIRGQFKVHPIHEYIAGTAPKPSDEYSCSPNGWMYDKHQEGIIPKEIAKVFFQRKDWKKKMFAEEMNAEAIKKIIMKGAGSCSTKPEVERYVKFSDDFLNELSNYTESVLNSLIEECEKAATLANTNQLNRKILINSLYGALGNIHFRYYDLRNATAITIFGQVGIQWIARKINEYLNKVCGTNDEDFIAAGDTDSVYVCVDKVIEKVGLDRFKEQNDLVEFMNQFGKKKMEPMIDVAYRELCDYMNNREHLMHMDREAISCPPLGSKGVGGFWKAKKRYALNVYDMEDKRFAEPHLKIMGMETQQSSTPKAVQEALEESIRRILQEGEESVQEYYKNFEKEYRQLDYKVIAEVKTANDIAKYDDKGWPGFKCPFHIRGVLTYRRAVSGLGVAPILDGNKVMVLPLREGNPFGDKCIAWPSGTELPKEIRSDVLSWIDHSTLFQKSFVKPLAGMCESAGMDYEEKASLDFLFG
- ASSAY_NOTES: Counter-screen against bacteriophage T4 DNA polymerase
- Assay type: biochemical
- DETAILS: DRC-1; read at 130'; concentration 10
Report as a plain number; the unit % is understood.

// solved cases for % inhibition T4 130' 10 follow
{"MOL_SMILES": "CC(=O)Nc1cc(C(=O)c2cccs2)nn(-c2ccc(Cl)cc2)c1=O", "RESULT_VALUE": 2.501}
{"MOL_SMILES": "CCCc1ccc(Oc2coc3cc(OC)ccc3c2=O)cc1", "RESULT_VALUE": 5.142}

// next entry
Record "O=C(c1ccccc1)N1CCc2c(nc3cc(-c4ccccc4)[nH]n3c2=O)C1" ; system bacteriophage T4 DNA polymerase (Enterobacteria phage T4); % inhibition T4 130' 10 = -9.449

###

Listed compounds paired with reported % inhibition apPOL 180'
- MEASURED_ON: P. falciparum apicoplast DNA polymerase (Pf-apPOL) (Plasmodium falciparum)
- Sequence (Q8ILY1 entry or part of it): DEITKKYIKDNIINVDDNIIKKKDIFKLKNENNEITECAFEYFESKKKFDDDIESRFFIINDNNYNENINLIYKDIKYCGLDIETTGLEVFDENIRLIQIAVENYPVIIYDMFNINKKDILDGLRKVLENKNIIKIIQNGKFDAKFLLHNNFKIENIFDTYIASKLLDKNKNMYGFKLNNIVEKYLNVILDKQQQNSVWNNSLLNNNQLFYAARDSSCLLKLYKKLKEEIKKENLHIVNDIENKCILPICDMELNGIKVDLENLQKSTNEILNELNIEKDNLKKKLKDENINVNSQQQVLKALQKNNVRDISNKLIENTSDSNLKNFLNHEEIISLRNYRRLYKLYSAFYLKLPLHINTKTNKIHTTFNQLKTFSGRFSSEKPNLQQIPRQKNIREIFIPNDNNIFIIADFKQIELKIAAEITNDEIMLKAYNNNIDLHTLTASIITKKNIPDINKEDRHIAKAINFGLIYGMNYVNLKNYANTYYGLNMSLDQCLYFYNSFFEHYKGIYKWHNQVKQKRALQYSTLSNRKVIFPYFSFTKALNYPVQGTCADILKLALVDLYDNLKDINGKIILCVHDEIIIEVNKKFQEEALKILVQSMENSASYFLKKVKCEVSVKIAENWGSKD
- ASSAY_NOTES: Fluorescence-based high-throughput DNA polymerase assay (molecular beacon), primary screen and dose-response;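 on % inhibition apPOL 180': test concentration in µM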
- Assay type: biochemical
- DETAILS: DRC-1; 180'; concentration 2.5
Report as a plain number; the unit % is understood.

// solved cases for % inhibition apPOL 180' follow
{"COMPOUND": "CCCCOC(=O)CCCCCN1C(=O)C(=Cc2ccc(OC)cc2)SC1=S", "MEASURED_ON": "P. falciparum apicoplast DNA polymerase (Pf-apPOL) (Plasmodium falciparum)", "% inhibition apPOL 180' (%)": 6.465}
{"COMPOUND": "COc1ccc2c(c1)C(c1ccccc1OC)CC(=O)O2 (stereo not drawn)", "MEASURED_ON": "P. falciparum apicoplast DNA polymerase (Pf-apPOL) (Plasmodium falciparum)", "% inhibition apPOL 180' (%)": -11.4597}
{"COMPOUND": "O=C(Nc1cccc(C(=O)Nc2ccc(S(=O)(=O)[O-])c3cc(S(=O)(=O)[O-])cc(S(=O)(=O)[O-])c23)c1)Nc1cccc(C(=O)Nc2ccc(S(=O)(=O)[O-])c3cc(S(=O)(=O)[O-])cc(S(=O)(=O)[O-])c23)c1.[Na+].[Na+].[Na+].[Na+].[Na+].[Na+]", "MEASURED_ON": "P. falciparum apicoplast DNA polymerase (Pf-apPOL) (Plasmodium falciparum)", "% inhibition apPOL 180' (%)": -3.025}
{"COMPOUND": "CN1CC(=Cc2ccco2)C(=O)C(=Cc2ccco2)C1", "MEASURED_ON": "P. falciparum apicoplast DNA polymerase (Pf-apPOL) (Plasmodium falciparum)", "% inhibition apPOL 180' (%)": 4.595}
{"COMPOUND": "COc1cc(/C=C2\\S/C(=N/C(C)=O)NC2=O)cc(Br)c1OCC(=O)O", "MEASURED_ON": "P. falciparum apicoplast DNA polymerase (Pf-apPOL) (Plasmodium falciparum)", "% inhibition apPOL 180' (%)": 1.284}

// next entry
Looking up "CS(=O)(=O)c1cccc(C(=O)Nc2nnc(-c3ccno3)o2)c1" , I see its % inhibition apPOL 180' listed as -9.274
